# Test method notes: Toxic limit in the HSV replication test
# Measurement conditions: monkey, bsc-1 cells
Counter-ions that a name gives are not always drawn.
Listed here: items and their measured MNTC.
Measured property: MNTC (µg/mL)

                                   molecule  observed
0  CNN(C)C1C2CC3CC(C2)CC1C3 (centres unmarked) [Example 49, hydrochloride]       100
1  CN(N)C1C2CC3CC(C2)CC1C3 (centres unmarked) [Example 27, hydrochloride]       100
2  O=C(O)CNNC1C2CC3CC(C2)CC1C3 (centres unmarked) [Example 36, hydrochloride]       200
3  C1CCN(NC2C3CC4CC(C3)CC2C4)CC1 (centres unmarked) [Example 10, hydrochloride]        50
4  NC12CC3CC(CC(C3)C1)C2 [Amant., Amantadine, reference compound]        50
